# System: SMN protein
# protocol: cellular SMN ELISA (SMN protein elevation) in myoblast cell line from SMNdelta7 mouse model
# Assay type: cell-based
# experimental-conditions: Biological Example 1; SMN ELISA, SMNdelta7 mouse myoblasts, 24 hours compound treatment; read-out: SMN Activity (EC50)
# Protocol: A cellular SMN ELISA was used to measure the effects of low molecular weight compounds on SMN protein elevation. Cells from a myoblast cell line derived from the SMNdelta7 mouse model (kind gift from Steve Burden, NYU) were seeded into a 384-well plate at a density of 3000 cells/well and treated with compounds for 24 hours. […] The reaction was stopped by addition of 40 uL of stop solution (Cell signaling, Catalog number 7002 L) and absorption was measured at 450 nm. […]
In plain terms, low EC50, meaning strictly below 70 nM, gives Y, and everything else gives N.

smiles-record | label-value
CN(c1ccc(-c2cc3c(C#N)nccc3cc2O)nn1)C1CC(C)(C)NC(C)(C)C1 | Y
CN(c1ccc(-c2cc3ccnc(C#N)c3cc2O)nn1)C1CC(C)(C)NC(C)(C)C1 | Y
Cc1cnc2cc(-c3ccc(N(C)C4CC(C)(C)NC(C)(C)C4)nn3)c(O)c(Br)c2c1 | N
CC1(C)CC(Oc2ccc(-c3cc4c(O)nccc4cc3O)nn2)CC(C)(C)N1 | N
CC1(C)CC(Oc2ccc(-c3cc4cnccc4cc3O)nn2)CC(C)(C)N1 | N
CN(c1ccc(-c2cc3cnccc3cc2O)nn1)C1CC(C)(C)NC(C)(C)C1 | Y
CN(c1ccc(-c2cc3cc(C4CCOCC4)cnc3cc2O)nn1)C1CC(C)(C)NC(C)(C)C1 | Y

* * *

The entries below are paired with their reported log10(EC50).
# Tested on: SMN protein
# protocol: cellular SMN ELISA (SMN protein elevation) in myoblast cell line from SMNdelta7 mouse model
# Assay type: cell-based
# experimental-conditions: comparison of unsubstituted, ortho-hydroxy and ortho-alkoxy pyridazines; as in Biological Example 1; read-out: SMN ELISA EC50
observation-type: log10(EC50) (log10 of the value in nM)

compound | target-of-assay | recorded-number
CN(c1ccc(-c2ccc3ccncc3c2)nn1)C1CC(C)(C)NC(C)(C)C1 [drawing 137 R = H] | SMN protein | 2.40
CN(c1ccc(-c2cc3cnccc3cc2O)nn1)C1CC(C)(C)NC(C)(C)C1 | SMN protein | 0.70
CN(c1ccc(-c2ccc3ncccc3c2)nn1)C1CC(C)(C)NC(C)(C)C1 [drawing 135 R = H] | SMN protein | 2.82
CN(c1ccc(-c2cc3ncccc3cc2O)nn1)C1CC(C)(C)NC(C)(C)C1 | SMN protein | 0.85
CN(c1ccc(-c2cc3ccncc3cc2O)nn1)C1CC(C)(C)NC(C)(C)C1 | SMN protein | 0.78
COc1cc2cccnc2cc1-c1ccc(N(C)C2CC(C)(C)NC(C)(C)C2)nn1 [drawing 136 R = OMe] | SMN protein | 3.07

* * *

# System: SMN protein
# protocol: cellular SMN ELISA (SMN protein elevation) in myoblast cell line from SMNdelta7 mouse model
# Assay type: cell-based
# experimental-conditions: Biological Example 1; SMN ELISA, SMNdelta7 mouse myoblasts, 24 hours compound treatment; read-out: SMN Activity (EC50)
observation-type: EC50 (nM)

compound | observation-type | recorded-number
CN(c1ccc(-c2cc3cccnc3cc2O)nn1)C1CC(C)(C)NC(C)(C)C1 [Example 1-1] | EC50 | 20
CN(c1ccc(-c2cc3nccc(Cl)c3cc2O)nn1)C1CC(C)(C)NC(C)(C)C1 [Preparation 13] | EC50 | 7
CN(c1ccc(-c2cc3nc(C(N)=O)ccc3cc2O)nn1)C1CC(C)(C)NC(C)(C)C1 [Example 26-6] | EC50 | 7
CC(C)c1cnc2cc(O)c(-c3ccc(N(C)C4CC(C)(C)NC(C)(C)C4)nn3)cc2c1 [Example 8-2] | EC50 | 190
CN(c1ccc(-c2cc3c(=O)nc[nH]c3cc2O)nn1)C1CC(C)(C)NC(C)(C)C1 [Example 22-1] | EC50 | 110
COC(=O)c1ccc2cc(O)c(-c3ccc(N(C)C4CC(C)(C)NC(C)(C)C4)nn3)cc2n1 [Example 26-7] | EC50 | 17
Cc1cc(C2CC2)c2cc(-c3ccc(N(C)C4CC(C)(C)NC(C)(C)C4)nn3)c(O)cc2n1 [Example 20-3] | EC50 | 65
Cc1cc(C2=CCOCC2)c2cc(-c3ccc(N(C)C4CC(C)(C)NC(C)(C)C4)nn3)c(O)cc2n1 [Example 20-4] | EC50 | 166

Entry source: patent US11672799B2
